test system: Escherichia coli TOP10; assay: shrunken log2 fold change of peptide-encoding DNA abundance (4.5 h post-induction vs induction); higher = less antimicrobial activity (less host growth inhibition); conditions: time post-induction: 4.5 h; library: site-saturation at positions 5, 18, 19, 20;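 further: peptides expressed intracellularly from a pBAD plasmid library in pooled LB shake-flask culture, induced with 0.3% L-arabinose, DNA abundance read by NGS, three biological replicates, DESeq2 with apeglm shrinkage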
Label Met for high-side shrunken log2 fold change (at or above -0.03) and Not met for low-side shrunken log2 fold change (below it).

Could you tell me if the measured shrunken log2 fold change of RRIRFRPPRLPRPRPRPMTYPRP reaches -0.03 or more?
Not met

Could you tell me if the measured shrunken log2 fold change of RRIRGRPPRLPRPRPRPVSHPRP reaches -0.03 or more?
Met

Could you tell me if the measured shrunken log2 fold change of RRIRWRPPRLPRPRPRPACIPRP reaches -0.03 or more?
Met

Could you tell me if the measured shrunken log2 fold change of RRIRYRPPRLPRPRPRPAKLPRP reaches -0.03 or more?
Not met

Could you tell me if the measured shrunken log2 fold change of RRIRNRPPRLPRPRPRPWYFPRP reaches -0.03 or more?
Not met

Could you tell me if the measured shrunken log2 fold change of RRIRRRPPRLPRPRPRPQRPPRP reaches -0.03 or more?
Met

Could you tell me if the measured shrunken log2 fold change of RRIRRRPPRLPRPRPRPWNEPRP reaches -0.03 or more?
Not met

Could you tell me if the measured shrunken log2 fold change of RRIRSRPPRLPRPRPRPFQNPRP reaches -0.03 or more?
Not met

Could you tell me if the measured shrunken log2 fold change of RRIRKRPPRLPRPRPRPLDAPRP reaches -0.03 or more?
Met

Could you tell me if the measured shrunken log2 fold change of RRIRSRPPRLPRPRPRPIGMPRP reaches -0.03 or more?
Not met

Could you tell me if the measured shrunken log2 fold change of RRIRNRPPRLPRPRPRPGIPPRP reaches -0.03 or more?
Met

Could you tell me if the measured shrunken log2 fold change of RRIRQRPPRLPRPRPRPFRCPRP reaches -0.03 or more?
Not met

Could you tell me if the measured shrunken log2 fold change of RRIRYRPPRLPRPRPRPPYIPRP reaches -0.03 or more?
Not met

Could you tell me if the measured shrunken log2 fold change of RRIRERPPRLPRPRPRPARHPRP reaches -0.03 or more?
Met

Could you tell me if the measured shrunken log2 fold change of RRIRNRPPRLPRPRPRPYQLPRP reaches -0.03 or more?
Met

Could you tell me if the measured shrunken log2 fold change of RRIRDRPPRLPRPRPRPNYQPRP reaches -0.03 or more?
Not met

Could you tell me if the measured shrunken log2 fold change of RRIRWRPPRLPRPRPRPILMPRP reaches -0.03 or more?
Not met

Could you tell me if the measured shrunken log2 fold change of RRIRIRPPRLPRPRPRPHNSPRP reaches -0.03 or more?
Not met

Could you tell me if the measured shrunken log2 fold change of RRIRYRPPRLPRPRPRPLSEPRP reaches -0.03 or more?
Not met

Could you tell me if the measured shrunken log2 fold change of RRIRCRPPRLPRPRPRPFWRPRP reaches -0.03 or more?
Met

Could you tell me if the measured shrunken log2 fold change of RRIRCRPPRLPRPRPRPHASPRP reaches -0.03 or more?
Not met

Could you tell me if the measured shrunken log2 fold change of RRIRHRPPRLPRPRPRPGGGPRP reaches -0.03 or more?
Met

Could you tell me if the measured shrunken log2 fold change of RRIRPRPPRLPRPRPRPMCLPRP reaches -0.03 or more?
Not met

Could you tell me if the measured shrunken log2 fold change of RRIRGRPPRLPRPRPRPDVQPRP reaches -0.03 or more?
Met

Could you tell me if the measured shrunken log2 fold change of RRIRHRPPRLPRPRPRPAGIPRP reaches -0.03 or more?
Not met

Could you tell me if the measured shrunken log2 fold change of RRIRCRPPRLPRPRPRPPTKPRP reaches -0.03 or more?
Met

Could you tell me if the measured shrunken log2 fold change of RRIRKRPPRLPRPRPRPLMLPRP reaches -0.03 or more?
Met

Could you tell me if the measured shrunken log2 fold change of RRIRTRPPRLPRPRPRPYDKPRP reaches -0.03 or more?
Not met

Could you tell me if the measured shrunken log2 fold change of RRIRDRPPRLPRPRPRPGWIPRP reaches -0.03 or more?
Met

Could you tell me if the measured shrunken log2 fold change of RRIRRRPPRLPRPRPRPQTFPRP reaches -0.03 or more?
Met

Could you tell me if the measured shrunken log2 fold change of RRIRLRPPRLPRPRPRPTYIPRP reaches -0.03 or more?
Not met

Could you tell me if the measured shrunken log2 fold change of RRIRPRPPRLPRPRPRPEHDPRP reaches -0.03 or more?
Met

Every entry's value here was drawn from the supplement of paper PMC9112550.
